System: SF-268
protocol.notes: NCI tumour cell line growth inhibition, 48 h
Activity calls are given as the source filed them. Cut-off read from the data, not from the text of the source: active = GI50 up to about 1.1 µM and inactive = higher.
readout: GI50

For the molecule COc1cc2c(cc1OC)[C@@H](Nc1ccc(F)cc1)C1COC(=O)[C@@H]1C2c1cc(OC)c(O)c(OC)c1 (some centres not stated) , give its measured GI50 value.
2.1 µM (inactive)

Determine its reported GI50: CC1=NN(C(=O)c2cc(Cl)cc([N+](=O)[O-])c2)C(=O)C1/N=N/c1ccccc1C(=O)O (configuration not stated)
> 100 µM (inactive)

Please supply the value of reported GI50 for the item NCCSCCC(=O)O
> 77.3 µM (inactive)

Output GI50 of O=C1/C(=C/c2ccc(O)c([N+](=O)[O-])c2)CCC/C1=C\c1ccc(O)c([N+](=O)[O-])c1
4.28 µM (inactive)

For O=C(O)c1cc(=O)c2c([nH]c3ccccc32)s1 , write its GI50.
> 100 µM (inactive)

For the molecule CC(=O)c1ccc(Nc2c3c(nc4ccccc24)CCCC3)cc1 , give its reported GI50.
40.2 µM (inactive)

Provide GI50 value for the following molecule: Cc1ccc(NC(=O)CSc2nc(C)nc3c2sc(=S)n3-c2ccccc2)cc1
6.14 µM (inactive)

====

System: K562
protocol.notes: NCI tumour cell line growth inhibition, 48 h
Active and inactive are the calls of the source. No stated cut-off is given here; in the data, active = GI50 up to about 1.1 µM and inactive = higher. Non-standard residues stand in square brackets, D forms with d. Residues, ends and D or L forms follow the SMILES beside them. ξ: configuration not given here. *: point of attachment. ξHyp = O=C(O)C1CC(O)CN1; Cbz = O=C(OCc1ccccc1)*
Your response should consist of one outcome taken from active, inactive

Just curious, what result did COc1cc(C(C)O)c(S(=O)(=O)CC(C)O)nn1 (centres undefined) get here?
inactive

Can you look up the reported call for CNC(=O)OC1/C(C)=C\C(C)C(O)C(OC)CC(C)CC2=C(OC)C(=O)C=C(C2=O)N(C)C(=O)/C(C)=C/C=C\C1OC (centres undefined) for me?
active

Please indicate how the test categorized O=C(/C=C/c1cccc([N+](=O)[O-])c1)c1ccc([N+](=O)[O-])cc1 .
inactive

Assay outcome for COC(=O)CCC1CCc2c(OC)ccc(O)c2C1=O (centres undefined) : what was it?
inactive

Outcome logged for CSCCC(NC(=O)Cc1ccc(C(=O)c2ccccc2)cc1)C(=O)N1CCN(CCCCN2c3ccccc3Sc3cc(N=[N+]=[N-])ccc32)CC1 (centres undefined) in this assay:
inactive

How did this test come out for CCC1(Cl)C(=O)NC(=O)N(C2CC(O)C(CO)O2)C1N=[N+]=[N-] (centres undefined) ?
inactive

Identify the outcome logged in this assay for the compound shown: CC(C(=O)c1ccc(Cl)cc1)/C(=N/NC(=O)NN)C(=O)Nc1cccc(C(F)(F)F)c1 (centres undefined)
inactive

Each compound tested received a call. Report the one for CC1CCc2c(sc3ncnc(N/N=C/c4ccc(Cl)cc4)c23)C1 (centres undefined) .
inactive

Please indicate how the test categorized CC1CNc2ccccc2N=C1NN (centres undefined) .
inactive

Per the records of this test, what outcome belongs to NC(=O)CNC(=O)C1CC(O)CN1C(=O)OCc1ccccc1 (centres undefined) (Cbz-[ξHyp]-Gly-NH2) ?
inactive

What is the recorded call for this compound in the test? Clc1ccc(OCc2nnc3sc(-c4ccc(-c5ccc(Cl)cc5Cl)o4)nn23)cc1
inactive

Would you mind telling me which call this test gave C=C(CO)[C@H]1CC/C(C)=C/CC/C(C)=C/C/C=C(\C)[C@H](O)C1 ?
inactive

// param item: O=C(NC(=O)c1cc(-c2ccccc2)n[nH]1)c1ccccc1 ; yields the recorded call
inactive

# fetch the recorded call for CN(C)CCNC(=O)c1cccc2c1C(=O)c1ccccc1C2=O here
inactive

Test call for this compound, please: O=C(O)c1cc(=O)c2c([nH]c3ccccc32)s1
inactive

Which result was noted for this compound in the test: COc1ccc(NC(=S)Nc2cc(C)cc(C)n2)cc1
inactive

Could you kindly confirm the outcome this assay logged for N#CCCC1(CCC#N)CCCCCCC(CCC#N)(CCC#N)C(O)C1O (centres undefined) ?
inactive

I'd appreciate the recorded outcome for CC(C)CC(=O)OC[n+]1ccc(-c2c(COC(=O)NC(C)C)c(COC(=O)NC(C)C)c3n2CCC3)cc1 from this test.
inactive

Hey, what did the test say about COc1cc(C(=O)n2c3ccc(Br)cc3c3nc4ccccc4nc32)cc(OC)c1OC ?
inactive

====

Tested on: UACC-62
protocol.notes: NCI tumour cell line growth inhibition, 48 h
Active and inactive are the calls of the source. Rule as the data show it: active = GI50 up to about 1.1 µM and inactive = higher.
readout: GI50

Specify reported GI50 for the compound shown: CC12OC3(C(O)C1O)C(C(=O)O[C@H]3CO[Si](C)(C)C(C)(C)C)C2S(=O)(=O)c1ccccc1 (stereo partly drawn)
16.1 µM (inactive)

Identify GI50 associated with the compound COc1ccccc1/C=C/C1=NN(c2cccc(S(=O)(=O)O)c2)C2(C1)SCC(=O)N2c1nc2ccccc2s1 (stereo not drawn)
53.8 µM (inactive)

Report measured GI50; entry is C[N+](C)(C)CCCSc1nc2ccccc2[nH]1
> 100 µM (inactive)

====

Test system: OVCAR-5
protocol.notes: NCI tumour cell line growth inhibition, 48 h
Active and inactive are the calls of the source. Rule as the data show it: active = GI50 up to about 1.1 µM and inactive = higher.
Your response should consist of one outcome taken from t for active, f for inactive

Look up the recorded call for O=C(O)c1cc(=O)c2c([nH]c3ccccc32)s1 in this test.
f

Write down the call the test reported for this compound. Item: CC1=CCC2(C#N)CCC1C2=O (centres undefined)
f

Could you check what this test reported for O=C(O)c1nn(-c2ccccc2-c2nnc(O)nc2O)c(=O)[nH]c1=O ?
f

Record lookup: outcome of this test for Cc1ccc(Nc2nc3c(=O)n(C)c(=O)n(C)c3nc2Nc2ccc(C)cc2)cc1 ?
f

What call does the record list for CC1C(c2ccccc2O)c2cc3c(cc2OC1N1CCCC1)OCO3 (centres undefined) ?
f

Fill in: this test's call for O=C(/C=C/c1ccccc1)Oc1cccc(Br)c1 is ___
f

Could you please tell me the result logged for COC(=O)C(C(=O)C(=O)Nc1ccccc1C#N)c1nc2ccc([N+](=O)[O-])cc2nc1O (centres undefined) in this assay?
f

Check the results log: what was the call for CC(=O)Nc1oc(C)nc1C#N ?
f

Could you please tell me the result logged for Clc1ccc(OCc2nnc3sc(-c4ccc(-c5ccc(Cl)cc5Cl)o4)nn23)cc1 in this assay?
f

Status in this test for O=C(O)Cc1cc(=O)[nH]c2c1C(=O)CCC2 ?
f

Could you kindly confirm the outcome this assay logged for Nc1ccccc1/C=C\c1ccccc1 ?
f

Hi team, can someone confirm the assay call for CCOC(=O)C(=O)N1C(C)=C(C(=O)OCC)CC(C(=O)OCC)=C1C ?
f

Just curious, what result did COC(=N)CCCl get here?
f

Dear colleague, could you share the recorded outcome for C=C1CC2CC(=O)C(O)C(C1)C2 (centres undefined) when you have a moment?
f

Entry CC1CC2CCCC(=O)C2=C(O)O1 (centres undefined) : call = ?
f

Field: outcome | Entry: COc1ccc(/C=C2\CCS(=O)(=O)c3ccccc3C2=O)cc1OC
f

// param item: CCOP(=O)(OCC)C(C)(CC)NC(=O)C(C(F)(F)F)C(F)(F)F (centres undefined) ; yields the recorded call
f

Any idea what this test logged for CO/C(N)=C(C#N)/N=C/c1cccs1 ?
f

I'd appreciate the recorded outcome for COC1CC(N)(c2ccccc2)C(O)C(C)O1 (centres undefined) from this test.
f

Which outcome was entered for the compound Cc1ccc(Cc2cc(N3CCN(c4cccc(Cl)c4)CC3)nnc2C)cc1 in this test?
f

For COc1ccc(-c2cn3c(nc4ccccc43)c(C)n2)cc1 , what call appears in the results of this test?
f

In this assay, the call recorded for Cc1c2c(cc3c1[nH]c1ccccc13)C(c1ccc(F)cc1)=NCC2 was what?
f

// outcome(item) with item = CCN(CC)CCOc1ccc(N2C(=O)c3cc(OC)c(OC)cc3C2=O)cc1
f

Give the logged outcome of this assay for the following compound: COc1cc(S(=O)(=O)Nc2ccc(-c3csc(N)n3)cc2)ccc1Cl
f

Give the logged outcome of this assay for the following compound: CO[C@H]1[C@@H](O)[C@@H](C)O[C@@H](O[C@H]2CC[C@@]3(C)[C@H](CC[C@@H]4[C@@H]3CC[C@]3(C)[C@@H](C5=CC(=O)OC5)[C@@H](OC(C)=O)C[C@]43O)C2)[C@@H]1O [NERITALOSIDE]
t

Status in this test for CN(C)N1C(=O)CC2(CCN(CCCC(=O)c3ccc(F)cc3)CC2)C1=O ?
f

How did this test come out for S=C1Cc2c([nH]c3ccccc23)-c2ccccc2N1 ?
f

Given CCC(=O)N1NC(=O)C(CC)(CC)C1=O , state the outcome it received in this test.
f

Test call for this compound, please: COC(=O)c1cc2c3ccccc3n(C(C)=O)c2cn1
f

Give the logged outcome of this assay for the following compound: COc1ccc([C@H]2[C@@H]3CCc4ccccc4C3=NN2C(N)=S)cc1OC
f

Each compound tested received a call. Report the one for COc1cc2cc[n+](C)c(Cc3ccccc3)c2cc1OC .
f

Query: recorded result category for N#CC1=C(Nc2ccccc2)SC=C(c2ccccc2)N=C1NCc1ccccc1 in this test
f

What is the recorded call for this compound in the test? NC(N)=NCCC[C@H](N)C(=O)NCC(=O)N[C@@H](CC(=O)O)c1ncc(NC(=O)C(F)(F)F)o1
f

State the result this test recorded for N#CC1(C#N)C2CCCCC23OC(=N)C1(C#N)C(c1ccco1)O3 (centres undefined) .
f
